Recorded measurements of IC90, one per entry
Test system: M. tuberculosis H37Rv growth inhibition with meropenem
assayDetails: dose response, H37Rv, with and without meropenem (AID 434987);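 further: growth over 7 days at 37 °C before Alamar Blue read on day 9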
testSettings: measured here: IC90 with meropenem

| compound | studyTarget | IC90 |
| --- | --- | --- |
| CCOC(=O)NC1c2ccccc2Oc2ccccc21 | M. tuberculosis H37Rv growth inhibition with meropenem | > 50 µM |
| CCc1ccc(NC(=O)c2c(Cl)nc(C)c(Cl)c2C)cc1 | M. tuberculosis H37Rv growth inhibition with meropenem | > 100 µM |
| CCOC(=O)/C(C#N)=C/c1ccc(OCC(=O)Nc2ccccc2)c(OC)c1 | M. tuberculosis H37Rv growth inhibition with meropenem | > 100 µM |
| CCOC(=O)c1ccccc1NC(=O)C1COc2ccccc2O1 (centres undefined) | M. tuberculosis H37Rv growth inhibition with meropenem | > 100 µM |
| Nc1n[nH]c(N)c1N=Nc1cccc(F)c1 | M. tuberculosis H37Rv growth inhibition with meropenem | > 100 µM |
| O=C(CNc1ccccc1Cl)Nc1cc(S(=O)(=O)N2CCOCC2)ccc1Cl | M. tuberculosis H37Rv growth inhibition with meropenem | > 100 µM |
| Cn1ccnc1C(=O)Cc1ccc([N+](=O)[O-])cc1 | M. tuberculosis H37Rv growth inhibition with meropenem | 22.6 µM |
| COC(=O)c1c(CSc2cccc(C)c2)noc1C(=O)NCc1ccco1 | M. tuberculosis H37Rv growth inhibition with meropenem | > 100 µM |
| Cc1ccc(C(=O)c2oc3ccccc3c2NC(=O)c2cc(-c3cc(C)ccc3O)n[nH]2)cc1 | M. tuberculosis H37Rv growth inhibition with meropenem | > 100 µM |
| CCOC(=O)C(=CNc1ccc2c(c1)c1ccccc1n2CC)C(=O)OCC | M. tuberculosis H37Rv growth inhibition with meropenem | > 25 µM |
| CSc1nsc(SC)c1NC(=O)OCc1ccccc1 | M. tuberculosis H37Rv growth inhibition with meropenem | > 100 µM |
| CN1C2CCC1CC(OC(=O)c1ccc([N+](=O)[O-])cc1)C2 (centres undefined) | M. tuberculosis H37Rv growth inhibition with meropenem | > 100 µM |
| NNC(=S)NC1CC2CC1C1C=CCC21 (centres undefined) | M. tuberculosis H37Rv growth inhibition with meropenem | 13.5 µM |
| O=C(Nc1cccc2ccccc12)N1CCCN(c2c(Cl)cncc2Cl)CC1 | M. tuberculosis H37Rv growth inhibition with meropenem | > 100 µM |
| O=C(Oc1c(-c2ccccc2)c(=O)n2c3c(cccc13)CC2)c1cccc([N+](=O)[O-])c1 | M. tuberculosis H37Rv growth inhibition with meropenem | 62.3 µM |
| O=C(O)CCN1C(=O)/C(=C/c2ccc(-c3nc4ccccc4s3)o2)SC1=S | M. tuberculosis H37Rv growth inhibition with meropenem | 78.4 µM |
| O=C1/C(=C/c2ccncc2)CCc2ccccc21 | M. tuberculosis H37Rv growth inhibition with meropenem | 29.1 µM |
| COCc1nnc(NC(=O)c2ccc(S(=O)(=O)N(C)c3ccccc3)cc2)o1 | M. tuberculosis H37Rv growth inhibition with meropenem | > 100 µM |
| COc1ccc(NC(=O)c2cc(Br)ccc2Cl)c(OC)c1 | M. tuberculosis H37Rv growth inhibition with meropenem | > 100 µM |
| O=C(CSc1ccc([N+](=O)[O-])cn1)Nc1ccc(N2CCOCC2)cc1 | M. tuberculosis H37Rv growth inhibition with meropenem | > 100 µM |
| CCC(C(=O)NC1C(=O)N2C(C(=O)O)=C(CSc3nnc(C)s3)CSC12)c1ccccc1 (centres undefined) | M. tuberculosis H37Rv growth inhibition with meropenem | 1.57 µM |
| O=C(CCC(=O)Nc1ccccc1)NNC(=O)c1ccco1 | M. tuberculosis H37Rv growth inhibition with meropenem | > 100 µM |
| COc1cc2c(cc1OC)C(c1ccccc1)CC2=O (centres undefined) | M. tuberculosis H37Rv growth inhibition with meropenem | > 100 µM |
| Cc1nc(SCC(=O)NCc2ccco2)c2c3c(sc2n1)CCCC3 | M. tuberculosis H37Rv growth inhibition with meropenem | > 100 µM |
| COc1ccc(Br)cc1/C=N/NC(=O)CNC(=O)/C=C/c1ccccc1 | M. tuberculosis H37Rv growth inhibition with meropenem | > 100 µM |
| O=C(NN=C1CCCC1)c1cccs1 | M. tuberculosis H37Rv growth inhibition with meropenem | > 100 µM |
| CCn1c(=O)n(CC)c2cc(N3CCCC3)c(NC(=O)c3cc(Br)ccc3OC)cc21 | M. tuberculosis H37Rv growth inhibition with meropenem | > 100 µM |
| c1ccc(Nc2ncnc3c2oc2ccccc23)cc1 | M. tuberculosis H37Rv growth inhibition with meropenem | > 100 µM |
| CCOC(=O)c1ccc(N2CN(C3CCCCC3)CNC2=S)cc1 | M. tuberculosis H37Rv growth inhibition with meropenem | > 100 µM |
| Cc1cc(C(=O)CSc2nnnn2-c2ccccc2)c(C)n1-c1ccc2c(c1)OCO2 | M. tuberculosis H37Rv growth inhibition with meropenem | 60.9 µM |
| CC(/C=C(\NC(=O)c1ccccc1)C(=O)N=Nc1c(O)[nH]c2ccc(C)cc12)=C\c1ccccc1 | M. tuberculosis H37Rv growth inhibition with meropenem | > 100 µM |
| CCC(=O)c1ccc(OCc2ccc(C(=O)OC)cc2)c(OC)c1 | M. tuberculosis H37Rv growth inhibition with meropenem | > 100 µM |
| Cc1ccc(C(=O)N/C(=C\c2ccc(-c3ccc(Cl)cc3)o2)C(=O)NCCCN(C)C)cc1 | M. tuberculosis H37Rv growth inhibition with meropenem | 23.7 µM |
| C/C(=N\NC(=O)c1ccccc1O)c1ccc(Br)s1 | M. tuberculosis H37Rv growth inhibition with meropenem | > 100 µM |
| CN1C/C(=N\S(=O)(=O)c2ccccc2)N(C)C1=O | M. tuberculosis H37Rv growth inhibition with meropenem | 33.7 µM |
| CCOc1ccc(N=c2cc(-c3ccc(OC)cc3)oc3ccccc23)cc1 | M. tuberculosis H37Rv growth inhibition with meropenem | 50.3 µM |
| CCc1ccc2nc(/N=C(\N)NC(=O)c3ccccc3)nc(C)c2c1 | M. tuberculosis H37Rv growth inhibition with meropenem | > 100 µM |
| CCO[C@H]1OC(C(=O)NCc2nc3ccccc3[nH]2)=C[C@@H](c2cn(C(C)=O)c3ccccc23)[C@@H]1CCCO | M. tuberculosis H37Rv growth inhibition with meropenem | > 100 µM |
| Clc1ccc(CSc2ccc(-c3cccnc3)nn2)cc1 | M. tuberculosis H37Rv growth inhibition with meropenem | > 100 µM |
| Cc1cccc(Cn2c(N3CCN(c4ccccc4)CC3)nc3c2c(=O)n(C)c(=O)n3C)c1 | M. tuberculosis H37Rv growth inhibition with meropenem | > 100 µM |
| COc1ccc(C(=O)Nc2oc(-c3ccccc3)c(-c3ccccc3)c2C#N)cc1OC | M. tuberculosis H37Rv growth inhibition with meropenem | > 100 µM |
| CC(C(=O)Nc1cc([N+](=O)[O-])ccc1Cl)N1CCN(c2ccccc2O)CC1 (centres undefined) | M. tuberculosis H37Rv growth inhibition with meropenem | > 100 µM |
| COCCNC(=S)N/N=C1\CC(C)CC(C)(C)C1 (centres undefined) | M. tuberculosis H37Rv growth inhibition with meropenem | 27.5 µM |
| COc1cc2cnc(-c3ccsc3)c(-c3ccc(F)cc3)c2cc1OC | M. tuberculosis H37Rv growth inhibition with meropenem | > 100 µM |
